- experimental.target: CDK2 (Homo sapiens, UniProt P24941)
- Construct: endogenous in cells; host or cells: MKN1 cells
- assay.explanation: CDK2 degradation in MKN1 cells (AlphaLISA)
- Format: cell-based
- assay.conditions: 14 h incubation
measured.quantity: CDK2 degradation 14 h: Average Dmax %

{"columns": ["compound", "recorded.result"],
 "data": [
  ["Cc1cc(S(=O)(=O)C2CC3(CCN(CC4CCN(c5cccc(NC6CCC(=O)NC6=O)c5F)CC4)CC3)C2)ccc1Nc1ncc2cc(Cl)c(=O)n(C3CCCC3)c2n1 (centres unmarked)", "A (A (>75% o))"],
  ["Cc1cc(S(=O)(=O)NC2CCC(CN3CCN(c4ncc(C5CCC(=O)NC5=O)cc4F)CC3)CC2)ccc1Nc1ncc(C(F)(F)F)c(N2CCCC(C)(O)C2)n1 (centres unmarked)", "A (A (>75% o))"],
  ["Cc1cc(S(=O)(=O)C2CC3(CCN(CC4CCN(c5ccc(OC6CCC(=O)NC6=O)cc5)CC4)CC3)C2)ccc1Nc1ncc2cc(Cl)c(=O)n(C3CCCC3)c2n1 (centres unmarked)", "A (A (>75% o))"],
  ["CC1(O)CCCN(c2nc(Nc3ccc(S(=O)(=O)NC4CCC(CN5CCN(c6ccc(C7CCC(=O)NC7=O)cc6)CC5)CC4)cc3C(F)F)ncc2C(F)(F)F)C1 (centres unmarked)", "A (A (>75% o))"],
  ["Cc1cc(S(=O)(=O)C2CC3(CCN(CC4CCN(c5cccc6c5n(C)c(=O)n6C5CCC(=O)NC5=O)CC4)CC3)C2)ccc1Nc1ncc2c(n1)N(C1CCCC1)C(=O)C21CC1 (centres unmarked)", "A (A (>75% o))"],
  ["CC1(O)CCCN(c2nc(Nc3ccc(S(=O)(=O)NC4CCC(CN5CCN(c6ccc(C7CCC(=O)NC7=O)cc6)CC5)CC4)cc3Cl)ncc2C(F)(F)F)C1 (centres unmarked)", "A (A (>75% o))"],
  ["CC1(O)CCCN(c2nc(Nc3ccc(S(=O)(=O)NC4CCC(CN5CCN(c6ccc(C7CCC(=O)NC7=O)cc6F)CC5)CC4)cc3C(F)(F)F)ncc2C(F)(F)F)C1 (centres unmarked)", "B (B (>50% -75%))"],
  ["Cc1cc(S(=O)(=O)C2CC3(CCN(CCOC4CN(c5ccc6c(c5F)n(C)c(=O)n6C5CCC(=O)NC5=O)C4)CC3)C2)ccc1Nc1ncc(C(F)(F)F)c(N2CCCC(C)(O)C2)n1 (centres unmarked)", "B (B (>50% -75%))"],
  ["Cc1cc(S(=O)(=O)NC2CCC(CN3CCN(c4cccc(NC5CCC(=O)NC5=O)c4F)CC3)CC2)ccc1Nc1ncc(C(F)(F)F)c(N2CCCC(C)(O)C2)n1 (centres unmarked)", "A (A (>75% o))"],
  ["Cc1cc(S(=O)(=O)NC2CCC(CN3CCN(c4c(C)cc(C5CCC(=O)NC5=O)cc4F)CC3)CC2)ccc1Nc1ncc(C(F)(F)F)c(N2CCCC(C)(O)C2)n1 (centres unmarked)", "A (A (>75% o))"],
  ["Cc1cc(S(=O)(=O)NC2CC(N3CCN(CC4CCN(c5ccc(N6CCC(=O)NC6=O)c(Cl)c5)CC4)CC3)C2)ccc1Nc1ncc(C(F)(F)F)c(N2CCCC(C)(O)C2)n1 (centres unmarked)", "A (A (>75% o))"]
]}
